# System: OVCAR-5 ovarian
# protocol.details: NCI-60 one-dose screen, 48 h
# experimental.context: 10 µM unless noted
The panel holds about 83,000 compounds, 20% with a hit somewhere; the sample as a whole holds those more often. Active and inactive are the calls of the source. The calls were made as follows: active = growth percent below 10; inactive = the rest.
Labels: active, inactive

molecule	category
O=C(OCc1ccc2c(Br)cc(Br)c(O)c2n1)c1cc2ccccc2[nH]1	active
CCCCn1c(C)nc2cc(Nc3nc(Cl)nc4nc[nH]c34)ccc21	inactive
CC1=C(C(=O)Nc2ccc(F)cc2)C(c2ccc(C)cc2)C2=C(CC(C)(C)CC2=O)N1 (stereo not given)	inactive
N#Cc1nc(-c2cccc(Br)c2)cc(-c2ccc(Nc3nc(N4CCCCC4)nc(N4CCCCC4)n3)cc2)c1N	active
Cc1cc(C)c2c(n1)sc1c(Nc3ccc(OCc4ccccc4)cc3)ncnc12	inactive

----------
# System: SK-MEL-2 melanoma
# protocol.details: NCI-60 one-dose screen, 48 h (100 = growth as untreated, 0 = no growth, -100 = all killed)
# experimental.context: 10 µM unless noted
About 83,000 compounds went through this panel and 20% of them were active in at least one assay; those are over-represented in the sample as a whole. The source made the active and inactive calls. How the source made its calls: active means growth percent below 10; inactive means the rest.

compound	growth
NC(N)=N/N=C\c1cccc(OCc2ccccc2)c1	61.4% (inactive)
C/C(=C\C(=N\N=C(N)N)c1ccc(Cl)cc1)c1ccc(Cl)cc1	-86.4% (active)
CN1CCN(Cc2ccc(NC(=O)c3cncc(C#Cc4ncc5cnccn45)c3)cc2C(F)(F)F)CC1	-12.9% (active)
O=C1C(Cl)=C(N/N=c2/[nH][nH]/c(=N/NC3=C(Cl)C(=O)c4ccccc4C3=O)c3ccccc23)C(=O)c2ccccc21	96.4% (inactive)
O=C(CCCCCCc1nc2ccc(Br)cc2[nH]1)NO	-5.43% (active)
CCc1oc2ccccc2c1C(=O)c1cc(I)c(O)c(I)c1	1.14% (active)
C=CCOc1c(Br)cc(Br)cc1Br	69.3% (inactive)
CC(C)c1[nH]ncc1-c1nc2ccc3[nH]ncc3c2c2c1CCCC2	68.6% (inactive)
Cc1[nH]nc2ccc3nc(-c4ccc5[nH]ncc5c4)c4c(c3c12)CCCC4	-15.5% (active)
COc1ccc(-c2cnc3ccnn3c2-c2cc(OC)c(OC)c(OC)c2)cc1	36.9% (inactive)
CC1(C)CC[C@]2(C(=O)N3CCNCC3)CC[C@]3(C)C(=CC[C@@H]4[C@@]5(C)CCC(=O)C(C)(C)[C@@H]5CC[C@]43C)[C@@H]2C1	105% (inactive)
N=c1n(Cc2ccccc2)c(N)cc(=O)n1Cc1ccccc1	94.6% (inactive)
COc1cc(/C=C2\C(=O)Nc3ccc(N(C)C)cc32)cc(OC)c1OC	61.2% (inactive)
O=C(c1ccc(C(F)(F)F)c(Cl)c1)N(Cc1ccc(Cl)cc1)c1ccc(-c2cc(C(F)(F)F)[nH]n2)c(O)c1	-18.3% (active)
O=C(CS)OCC(COC(=O)CS)(COC(=O)CS)COC(=O)CS	40.6% (inactive)
COCCCNCC(=O)Nc1c(C)cccc1C	112% (inactive)
COc1cc(C2Nc3ccccc3S2)cc(CN2CCOCC2)c1O (stereo not given)	64.4% (inactive)
CCCCNCC(O)c1cc(-c2ccc(C(F)(F)F)cc2)nc(-c2ccc(C(F)(F)F)cc2)c1 (stereo not given)	-67.1% (active)
CC1=C(C(=O)Nc2ccc(F)cc2)C(c2ccc(C)cc2)C2=C(CC(C)(C)CC2=O)N1 (stereo not given)	110% (inactive)
O=C1C2=C(C(=O)c3c(O)ccc(O)c31)N(c1ccc(N3CCOCC3)nc1)Cc1ccccc1O2	-42.1% (active)
